test system: MOLT-4 leukemia; test: NCI-60 one-dose screen, 48 h; conditions: 10 µM
This is part of a sample that, as a whole, favours compounds with a hit. Of some 83,000 tested, about 20% had one in any assay. Calls of active or inactive are those of the source. Rule for the calls: active = growth percent below 10; inactive = the rest.
# output must be one of true (active), false (inactive)

Answered cases to consult:
INSERT INTO measurements (compound, label) VALUES
  ('CCC(O)c1ccc(Br)cc1NC(=O)c1cccc(Cl)c1 (configuration not stated)', 'false'),
  ('O=C(O)CNS(=O)(=O)c1ccc(OCCOc2ccc(S(=O)(=O)NCC(=O)O)cc2)cc1', 'false'),
  ('O=C(CCl)N1c2ccccc2Sc2ccc3ccccc3c21', 'true'),
  ('Cc1cc(C)c(/C=C2\C(=O)Nc3ccc(NC(=O)CCCCCCC(=O)NO)cc32)[nH]1', 'false'),
  ('O=C(CSc1nnc(-c2ccc(Cl)cc2)o1)c1ccccc1', 'false');

Ask: // param item: CCN(CCCNC(=O)Cc1cc(=O)oc2cc(N(C)C)ccc12)CCNc1ccnc2cc(Cl)ccc12 ; yields the recorded call
Result: false

Ask: // param item: CCCCC(=O)N(c1ccc(Nc2c3ccccc3nc3cc([N+](=O)[O-])ccc23)cc1)S(C)(=O)=O ; yields the recorded call
Result: false

Ask: // param item: C=C[C@]1(C)C=C2C(=O)[C@@]3(O)OC(=O)[C@@]4(CCCC(C)(C)[C@H]34)[C@@]2(O)CC1 ; yields the recorded call
Result: true

Ask: // param item: O=C1/C(=C/c2ccc([N+](=O)[O-])s2)Oc2ccc(Cl)cc21 ; yields the recorded call
Result: true

Ask: // param item: CCCCCCCCCCCCc1ccc(C(=O)/C=C/C(=O)O)cc1 ; yields the recorded call
Result: true

Ask: // param item: COCCOC(=O)NC(=O)Nc1ccc(/C(=N/O)c2ccc(Cl)cc2)cc1 ; yields the recorded call
Result: true

Ask: // param item: COc1cc(C(c2c[nH]c3ccccc23)N2CCCC2)ccc1OCc1ccccc1 (configuration not stated) ; yields the recorded call
Result: false

Ask: // param item: COc1ccc2oc(=O)cc(C(c3ccc[nH]3)c3ccc[nH]3)c2c1 ; yields the recorded call
Result: true

Ask: // param item: COc1ccc(-c2ccc(-c3ccc(C(=N)N)c(F)c3)s2)cc1 ; yields the recorded call
Result: true

Ask: // param item: CC(C)/C(=N/O)c1ccccc1 ; yields the recorded call
Result: false

Ask: // param item: CCOC(=O)Cn1nnc(-c2ccc(OCc3ccccc3F)cc2)n1 ; yields the recorded call
Result: false

Ask: // param item: COc1cc(-c2nc3ccccc3[nH]2)ccc1OCC(=O)N=Nc1c(O)[nH]c2ccccc12 ; yields the recorded call
Result: false

Ask: // param item: FC(F)(F)c1ccc(-c2nc(-c3nc4cc(Cl)c(Cl)cc4[nH]3)c3ccccn23)cc1 ; yields the recorded call
Result: false

Ask: // param item: Cc1ccc(C2C=C(c3ccc(Cl)cc3)N=C3SC=CN32)c(Br)c1 (configuration not stated) ; yields the recorded call
Result: false

Ask: // param item: CCOc1ccc2c(c1)CC[C@@H]1[C@@H]2CC[C@]2(C)[C@@H](O)[C@@H](O)C[C@@H]12 ; yields the recorded call
Result: false

Ask: // param item: Cc1cccc2c1O/C(=C\c1ncc([N+](=O)[O-])n1C)C2=O ; yields the recorded call
Result: true

Ask: // param item: CCSc1nc2c([nH]1)c(=O)n(C)c(=S)n2C ; yields the recorded call
Result: false

---

Test system: HCC-2998 colon
Test: NCI-60 one-dose screen, 48 h
Settings: 10 µM
Protocol: Growth inhibition of the HCC-2998 human tumor cell line is measured as a screen for anti-cancer activity. Cells are grown in 96 well plates and exposed to the test compound for 48 hours. Compounds are tested at a single concentration, which is 10^-5 M for most compounds. The reported endpoint is percent growth (GI% or GIPRCNT), where numbers from 0 - 100% represent growth inhibition, and numbers from -100% - 0 represent cell death. For example, a value of 40 represents 60% growth inhibition. […]
Compounds without any hit were thinned out: in the full panel of roughly 83,000, 20% have a hit. Active and inactive are the calls of the source. How the source made its calls: active means growth percent below 10; inactive means the rest.
# output must be one of active, inactive

Answered cases to consult:
INSERT INTO assay_data (compound, label) VALUES
  ('COc1ccc(CCc2nc3cc(-c4c(C)noc4C)ccc3n2CCN2CCOCC2)cc1', 'inactive'),
  ('O=c1[nH]c(=O)n(C2C[C@@H](O)[C@@H](CO)O2)cc1F (stereo not given in full)', 'active'),
  ('Cc1ccc(S(=O)(=O)Oc2ccccc2-c2ccccc2)cc1', 'inactive'),
  ('Nc1ccc2c(c1)Cc1cc(N)c(Cl)cc1-2', 'inactive'),
  ('COc1ccccc1CNCCCN1C(=O)c2ccc3c4c(ccc(c24)C1=O)C(=O)N(CCCNCCNCCCN)C3=O', 'inactive');

Ask: // param item: CCc1c(C)[nH]c(=O)c(C(N)=O)c1C#N ; yields the recorded call
Result: inactive

Ask: // param item: CC1(C)CNC(=O)N1 ; yields the recorded call
Result: inactive

Ask: // param item: CCCCCCCCCCCCCCCC(=O)N1CCN(C)CC1 ; yields the recorded call
Result: inactive

Ask: // param item: CCOC(=O)Nc1ccc2c(c1)C(=O)N(CCOC)c1ccccc1O2 ; yields the recorded call
Result: inactive

Ask: // param item: COc1ccc(-c2nc(-c3nc4ccc(C)cc4[nH]3)c3ccccn23)cc1 ; yields the recorded call
Result: inactive

---

Measured growth of individual entries
system: SF-539 CNS; test: NCI-60 one-dose screen, 48 h (100 = growth as untreated, 0 = no growth, -100 = all killed); conditions: 10 µM
The panel holds about 83,000 compounds, 20% with a hit somewhere; the sample as a whole holds those more often. Calls of active or inactive are those of the source. The calls were made as follows: active = growth percent below 10; inactive = the rest.

Consider the following illustrative entries.
INSERT INTO results (compound, result) VALUES
  ('CC(C)/C(=N/O)c1ccccc1', '94.6% (inactive)'),
  ('O=C(NCCc1nccs1)c1cnc2c(S)cccc2c1', '22.8% (inactive)'),
  ('c1ccc(C2CCCCC2)c(OCCCCCN2CCNCC2)c1', '68.7% (inactive)'),
  ('Nc1nc2c(ncn2C2OC3COP(=O)(O)OC4C(COP(=O)(O)OC2C3O)OC(n2cnc3c(N)ncnc32)C4O)c(=O)[nH]1 (stereo not drawn)', '0.807% (active)'),
  ('COc1c(-c2c3sc(=O)[nH]c3nc3c2c(=O)[nH]n3C(C)C)cc2c(c1OC)OCO2', '94.8% (inactive)');

Ask: Quick one: growth for Oc1ccc(Cn2cc3c(c2-c2ccccc2)CCc2cnoc2-3)cc1 ?
Result: 94.5% (inactive)

Ask: Quick one: growth for FC(F)(F)c1ccc(-c2cnc(Cl)nc2NC2CCCCCC2)cc1 ?
Result: 75.1% (inactive)

Ask: Quick one: growth for C/C(=N/NC(=O)c1sc(=S)n(C)c1N)c1cc2cc(Cl)ccc2o1 ?
Result: 99.2% (inactive)

Ask: Quick one: growth for CCC1(C)OC(=O)NC1=O (stereo not drawn) ?
Result: 99.1% (inactive)

Ask: Quick one: growth for Cc1cccc2c1O/C(=C\c1ncc([N+](=O)[O-])n1C)C2=O ?
Result: -61% (active)

---

system: COLO 205 colon; experiment: NCI-60 one-dose screen, 48 h (100 = growth as untreated, 0 = no growth, -100 = all killed); conditions: 10 µM
This is part of a sample that, as a whole, favours compounds with a hit. Of some 83,000 tested, about 20% had one in any assay. The source made the active and inactive calls. Rule for the calls: active = growth percent below 10; inactive = the rest.
assay_readout: growth

INSERT INTO assay_data (molecule, target_or_test_system, assay_readout, result) VALUES
  ('COc1ccc(-c2nnc(N3CCN(C(=O)CN4CCN(c5ccc(Cl)cc5)CC4)CC3)nc2-c2ccc(OC)cc2)cc1', 'COLO 205 colon', 'growth', '59.2% (inactive)');

Ask: Quick one: growth for Cc1ccc([P+](Cc2ccccc2)(c2ccccc2)c2ccccc2)cc1 ?
Result: -68.9% (active)

---

tested on: U251 CNS; assay: NCI-60 one-dose screen, 48 h (100 = growth as untreated, 0 = no growth, -100 = all killed); conditions: 10 µM
This is part of a sample that, as a whole, favours compounds with a hit. Of some 83,000 tested, about 20% had one in any assay.
assay_readout: growth (%)
Note: unit % is implicit; provide only the numeric part.

Consider the following illustrative entries.
INSERT INTO measurements (mol, measured_number) VALUES
  ('O=C(Nc1cccc(C(F)(F)F)c1)C(Cl)Cl', 102),
  ('CCCCn1c(=O)[nH]c2c(c1=O)C(c1ccc(Cl)cc1)c1c([nH]c(=O)n(CCCC)c1=O)N2', 94),
  ('O=[N+]([O-])c1ccc(-c2nc(Cl)c3c(n2)CCCC3)o1', 78.6);

Ask: Quick one: growth for Cc1nc2ccc(-n3c(-c4ccc(Cl)cc4)nc4ccccc4c3=O)cc2n1Cc1ccccc1 ?
Result: 89.1
